# target: TRAF6/Uev1A/Ubc13 (Homo sapiens, UniProt Q9Y4K3)
# experimentalProtocol: TRAF6/Uev1A/Ubc13 plate-based ubiquitin ligase assay
Let's look at some compounds and their measured IC50.

Recorded results for 2 compounds are shown here.
> print(dat)
                                   compound  valuetype  readoutvalue
1  N#Cc1cccnc1N1CCN(S(=O)(=O)c2c(Sc3cccc4cccnc34)ccc3nonc23)CC1       IC50    1 to 20 µM
2  O=[N+]([O-])c1c(N2CCCCC2)cc(N2CCN(c3ccc(Cl)c(C(F)(F)F)c3)CC2)c2nonc12       IC50       ≥ 20 µM

What does the record list as IC50 for `O=S(=O)(c1ccc(Cl)c2nonc12)N1CCC(O)(c2ccc(Cl)cc2)CC1` ? ≥ 20 µM

Record request: IC50 value, item `O=S(=O)(c1ccc(N2CCN(c3ccc(O)cc3)CC2)c2nonc12)N1CCN(c2ccc(O)cc2)CC1` ≥ 20 µM

Which IC50 value is on record for `CC(=O)c1cccc(-c2ccc([N+](=O)[O-])c3nonc23)c1` ? 1 to 20 µM

Entry `COc1cccc(-c2ccc([N+](=O)[O-])c3nonc23)c1F` : reported IC50 = ? 1 to 20 µM

// IC50 lookup, key: `O=C1OC2(CCN(c3ccc([N+](=O)[O-])c4nonc34)CC2)c2ccccc21` 1 to 20 µM

Reported IC50, compound `O=S(=O)(Nc1ncccc1OCc1ccccc1)c1ccc(Cl)c2nonc12` : ____ ≥ 20 µM

###

# target: APC11/APC2 (Homo sapiens, UniProt Q9NYG5+Q9UJX6)
# Sequence (Q9NYG5 whole entry): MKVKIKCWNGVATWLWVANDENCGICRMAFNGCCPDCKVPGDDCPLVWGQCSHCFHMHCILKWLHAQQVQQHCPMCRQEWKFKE
# Sequence (Q9UJX6 whole entry): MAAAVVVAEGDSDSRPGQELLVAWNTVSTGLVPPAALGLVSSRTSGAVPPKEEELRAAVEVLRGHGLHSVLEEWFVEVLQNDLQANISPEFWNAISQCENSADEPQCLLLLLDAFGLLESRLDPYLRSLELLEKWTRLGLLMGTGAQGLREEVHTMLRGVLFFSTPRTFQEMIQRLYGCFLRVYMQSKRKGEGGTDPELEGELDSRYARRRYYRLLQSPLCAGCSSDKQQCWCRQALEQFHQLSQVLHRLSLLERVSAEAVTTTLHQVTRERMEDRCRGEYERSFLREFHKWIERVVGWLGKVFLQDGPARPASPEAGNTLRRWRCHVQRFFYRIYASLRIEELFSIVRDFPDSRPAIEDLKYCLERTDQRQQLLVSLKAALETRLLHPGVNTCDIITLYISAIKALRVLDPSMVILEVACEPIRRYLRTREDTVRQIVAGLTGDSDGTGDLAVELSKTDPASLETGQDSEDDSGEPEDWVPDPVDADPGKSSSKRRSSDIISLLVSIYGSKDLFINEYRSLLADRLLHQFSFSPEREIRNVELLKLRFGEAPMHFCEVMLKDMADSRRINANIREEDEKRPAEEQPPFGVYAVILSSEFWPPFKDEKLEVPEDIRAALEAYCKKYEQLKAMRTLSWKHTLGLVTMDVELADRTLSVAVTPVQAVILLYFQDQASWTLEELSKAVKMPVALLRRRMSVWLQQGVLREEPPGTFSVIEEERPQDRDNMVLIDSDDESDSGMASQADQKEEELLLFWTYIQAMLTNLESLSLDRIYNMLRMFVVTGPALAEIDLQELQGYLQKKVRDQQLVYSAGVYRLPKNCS
# experimentalProtocol: APC-11/APC-2 ligase assay (APC auto ubiquitination)
# conditionLabel: APC assay
Entries and their IC50

Consider the following illustrative entries.
> print(dat)
                                   molecule  valuetype  readoutvalue
1  O=S(=O)(NCCCc1ccccc1)c1ccc(Cl)c2nonc12 [compound 445]       IC50       ≥ 20 µM
2  O=S(=O)(Nc1ccc2cn[nH]c2c1)c1c(O)ccc2nonc12 [compound 339]       IC50       ≥ 20 µM
3  O=S(=O)(Nc1ccc(F)cc1F)c1ccc(Nc2ccc(F)cc2F)c2nonc12 [compound 371]       IC50       ≥ 20 µM
4  Oc1ccc2c(c1)cc(Cl)c1nonc12 [compound 430]       IC50       ≥ 20 µM

Query (molecule): COc1ccc(OC)c(NS(=O)(=O)c2ccc(N3CCOCC3)c3nonc23)c1 [compound 369] ; field requested: IC50 ≥ 20 µM

###

# target: TRAF6/Uev1A/Ubc13 (Homo sapiens, UniProt Q9Y4K3)
# experimentalProtocol: TRAF6/Uev1A/Ubc13 plate-based ubiquitin ligase assay
Reported IC50 values for the following molecules.

> print(dat)
                                   molecule  readoutvalue
1  CC(C)(C)c1ccc(-c2cc(N3CCCCC3)c([N+](=O)[O-])c3nonc23)cc1       ≥ 20 µM
2     COc1ccccc1-c1cc(-c2ccccc2OC)c2nonc2c1       ≥ 20 µM

What IC50 appears in the records for this molecule with TRAF6/Uev1A/Ubc13 (Homo sapiens, UniProt Q9Y4K3)? `Cc1ccc(Cl)cc1N1CCN(c2ccc([N+](=O)[O-])c3nonc23)CC1` 1 to 20 µM

Param readout= IC50; system= TRAF6/Uev1A/Ubc13 (Homo sapiens, UniProt Q9Y4K3); entry= `O=S(=O)(Nc1ccc(Oc2ncccn2)c(Cl)c1)c1cccc2nonc12` ; returns value. ≥ 20 µM

So what IC50 did `O=S(=O)(NCc1ccccn1)c1ccc(Cl)c2nonc12` get with TRAF6/Uev1A/Ubc13 (Homo sapiens, UniProt Q9Y4K3)? ≥ 20 µM

Entry `COc1ccc(-c2cc3nsnc3cc2F)cc1` , system TRAF6/Uev1A/Ubc13 (Homo sapiens, UniProt Q9Y4K3): what IC50 was measured? ≥ 20 µM

API: value(readout= IC50, system= TRAF6/Uev1A/Ubc13 (Homo sapiens, UniProt Q9Y4K3), query= `O=S(=O)(Nc1ccc2[nH]ncc2c1)c1ccc(Cl)c2nonc12` ) ≥ 20 µM

Look up IC50 with TRAF6/Uev1A/Ubc13 (Homo sapiens, UniProt Q9Y4K3) for this molecule: `O=S(=O)(Nc1cccc2nsnc12)c1ccc(Oc2ccccc2)cc1` 1 to 20 µM

Please provide the recorded IC50 for `O=C(Nc1ccc(N2CCN(c3ncc(C(F)(F)F)cc3Cl)CC2)c2nonc12)c1cccs1` , tested on TRAF6/Uev1A/Ubc13 (Homo sapiens, UniProt Q9Y4K3). 1 to 20 µM

GET /values?readout=IC50&system=TRAF6/Uev1A/Ubc13 (Homo sapiens, UniProt Q9Y4K3)&item= `O=S(=O)(c1ccc(F)c2nonc12)N1CCN(c2ncc(C(F)(F)F)cc2Cl)CC1` < 1 µM

What value of IC50 on TRAF6/Uev1A/Ubc13 (Homo sapiens, UniProt Q9Y4K3) does `CCN(CC)c1cc(N2CCC(O)(c3ccccc3)CC2)c2nonc2c1[N+](=O)[O-]` have? ≥ 20 µM

// fetch TRAF6/Uev1A/Ubc13 (Homo sapiens, UniProt Q9Y4K3) IC50 for `Cc1cc(N2CCN(c3ccc([N+](=O)[O-])c4nonc34)CC2)c2ccccc2n1` ≥ 20 µM

Give IC50 (TRAF6/Uev1A/Ubc13 (Homo sapiens, UniProt Q9Y4K3)) of the following molecule: CC1CN(S(=O)(=O)c2ccc(Sc3cccc4cccnc34)c3nonc23)CC(C)O1 (stereo not drawn) ≥ 20 µM

Provide value of IC50 for this record tested with TRAF6/Uev1A/Ubc13 (Homo sapiens, UniProt Q9Y4K3): `COC(=O)c1ccc(Cl)cc1NS(=O)(=O)c1ccc(Cl)c2nonc12` ≥ 20 µM

Lab request: please report IC50 under test system TRAF6/Uev1A/Ubc13 (Homo sapiens, UniProt Q9Y4K3) for `CC1(C)CCN(S(=O)(=O)c2ccc(Cl)c3nonc23)CC1` ≥ 20 µM

Can you look up IC50 on TRAF6/Uev1A/Ubc13 (Homo sapiens, UniProt Q9Y4K3) for `O=S(=O)(Nc1cc(Cl)ccc1Cl)c1ccc(Cl)c2nonc12` ? ≥ 20 µM

Query IC50 on TRAF6/Uev1A/Ubc13 (Homo sapiens, UniProt Q9Y4K3) for `O=[N+]([O-])c1cc(-c2ccc(C(F)(F)F)cc2C(F)(F)F)c2nonc2c1` ≥ 20 µM

// map `O=S(=O)(Nc1ccc2cn[nH]c2c1)c1ccc(Cl)c2nonc12` to recorded IC50 (system: TRAF6/Uev1A/Ubc13 (Homo sapiens, UniProt Q9Y4K3)) ≥ 20 µM

###

# pIC50 values compiled below
# target: TRAF6/Uev1A/Ubc13 (Homo sapiens)
# Sequence (Q9Y4K3 1-522): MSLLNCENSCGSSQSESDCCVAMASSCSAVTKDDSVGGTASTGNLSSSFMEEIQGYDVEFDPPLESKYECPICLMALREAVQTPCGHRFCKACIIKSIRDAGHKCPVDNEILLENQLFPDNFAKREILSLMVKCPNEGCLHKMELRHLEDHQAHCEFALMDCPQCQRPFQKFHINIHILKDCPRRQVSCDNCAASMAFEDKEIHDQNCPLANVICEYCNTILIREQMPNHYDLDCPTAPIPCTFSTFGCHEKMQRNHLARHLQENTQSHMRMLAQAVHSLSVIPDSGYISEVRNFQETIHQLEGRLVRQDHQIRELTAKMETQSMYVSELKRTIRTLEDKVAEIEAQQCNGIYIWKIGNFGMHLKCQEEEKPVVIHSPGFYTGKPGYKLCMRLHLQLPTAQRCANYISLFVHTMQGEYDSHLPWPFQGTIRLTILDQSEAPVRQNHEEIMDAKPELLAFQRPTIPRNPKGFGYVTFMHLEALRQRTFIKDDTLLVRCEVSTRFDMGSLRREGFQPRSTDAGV
# experimentalProtocol: TRAF6/Uev1A/Ubc13 plate-based ubiquitin ligase assay
pIC50: −log10 of the molar value.

> print(dat)
                                   molecule                            target  valuetype  readoutvalue
1  O=[N+]([O-])c1ccc(Sc2nc3ccccc3s2)c2nonc12 [compound 158]  TRAF6/Uev1A/Ubc13 (Homo sapiens)      pIC50  4.70 to 6.00
2  O=S(=O)(Nc1ccccc1F)c1ccc(N2CCOCC2)c2nonc12 [compound 372]  TRAF6/Uev1A/Ubc13 (Homo sapiens)      pIC50        ≤ 4.70
3  O=S(=O)(Nc1ccc(OS(=O)(=O)c2ccc(Cl)c3nonc23)c2ccccc12)c1ccc(Cl)c2nonc12 [compound 394]  TRAF6/Uev1A/Ubc13 (Homo sapiens)      pIC50  4.70 to 6.00

Now consider the entry below.
For COc1cc(Cl)c(C)cc1NS(=O)(=O)c1ccc(Cl)c2nonc12 [compound 362] , what is its reported pIC50? ≤ 4.70
